- experiment-description: NCI Yeast Anticancer Drug Screen. Data for the rad50 strain (AID 155);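 further: 0% = growth of vehicle-only cultures of the same strain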
- experimental-context: S. cerevisiae rad50 strain growth inhibition, hits give high values; at 50.0 µM unless noted
This is part of a sample that, as a whole, favours compounds with a hit. Of some 79,000 tested, about 15% had one in any assay.
Reported growth inhibition values are given for each entry in this list.
measure-name: growth inhibition (%)

[[record]]
compound = "COc1ccc(-[n+]2nc(S(=O)(=O)O)c(/C=C/c3ccc(N(C)C)cc3)cc2C#N)cc1"
measured_value = -13.8

[[record]]
compound = "OCC(O)COc1ccc(F)cc1 (stereo not drawn)"
measured_value = 19.7

[[record]]
compound = "CCC(C)(CC=C(C)C)c1ccncc1 (stereo not drawn)"
measured_value = -6.7

[[record]]
compound = "CC(C)CCCC(C)C1CCC2C3CC4OC45CC(O)CCC5(C)C3CCC12C (stereo not drawn)"
measured_value = 42.4

[[record]]
compound = "COS(=O)(=O)CC(O)(c1ccccc1)c1ccccc1"
measured_value = 12.7

[[record]]
compound = "CSC1N=CNc2c1sc(=S)n2-c1ccccc1 (stereo not drawn)"
measured_value = -20.8

[[record]]
compound = "O=P1(NC23CC4CC(CC(C4)C2)C3)OC(CCl)=NC1c1ccc(C2N=C(CCl)OP2(=O)NC23CC4CC(CC(C4)C2)C3)cc1 (stereo not drawn)"
measured_value = -56.6

[[record]]
compound = "Cc1ccc(C2SC(N)=Nc3c2c(C)nn3C(=O)c2ccc(Cl)cc2)cc1 (stereo not drawn)"
measured_value = -36.1

[[record]]
compound = "O=C1C=C(c2ccccc2)C(c2ccccc2)/C1=N/O (stereo not drawn)"
measured_value = 11.3

[[record]]
compound = "Cc1ccc(C(C)C)c(Oc2cc(C)ccc2C(C)C)c1"
measured_value = -17.9

[[record]]
compound = "Nc1ccc(Cc2cc([N+](=O)[O-])cc([N+](=O)[O-])c2)cc1"
measured_value = 3.15

[[record]]
compound = "CSCCC(Nc1ccc([N+](=O)[O-])cc1[N+](=O)[O-])C(=O)O (stereo not drawn)"
measured_value = 9.55

[[record]]
compound = "CCCCCCCS(=O)c1nc2ccccc2s1 (stereo not drawn)"
measured_value = 37.2

[[record]]
compound = "O=C1C(NCCc2cc(Br)c(O)c(Br)c2)=CC(=O)c2ncccc21"
measured_value = 31.9

[[record]]
compound = "N#CC1(OC2CCCCO2)Cc2ccccc2C1 (stereo not drawn)"
measured_value = 16.8

[[record]]
compound = "COC1CCC2C3CCC(C3)C12 (stereo not drawn)"
measured_value = 26.9

[[record]]
compound = "O=C(C(=C(I)I)c1ccccc1)c1ccccc1"
measured_value = 7.7

[[record]]
compound = "CCOC(=O)O/C(=C\\c1ccc(OC)cc1)c1c(OC(=O)OCC)n(C(=O)OCC)c2ccccc12"
measured_value = -13.1

[[record]]
compound = "CCOc1cc2c(cc1C(C)c1ccc(OC)c(C)c1)OCO2 (stereo not drawn)"
measured_value = 11.1

[[record]]
compound = "Cc1cc2c(C(C)C)c(O)c(O)c(C=NC(C)c3ccccc3)c2c(O)c1-c1c(C)cc2c(C(C)C)c(O)c(O)c(C=NC(C)c3ccccc3)c2c1O (stereo not drawn)"
measured_value = 18.2

[[record]]
compound = "CN(Cc1ccccc1Cl)C(=S)NC1CCCCC1"
measured_value = 62

[[record]]
compound = "CN(N)c1nc(N)c(C#N)c(C#N)c1C#N"
measured_value = -16.8

[[record]]
compound = "O=C(Nc1ccccc1)Nc1ccc2c(c1)oc1ccccc12"
measured_value = 8.85


----------
- experiment-description: NCI Yeast Anticancer Drug Screen. Data for the rad50 strain (AID 155);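 further: 0% = growth of vehicle-only cultures of the same strain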
- experimental-context: S. cerevisiae rad50 strain growth inhibition, hits give high values; at 50.0 µM unless noted
The panel holds about 79,000 compounds, 15% with a hit somewhere; the sample as a whole holds those more often.
measure-name: growth inhibition (%)

[[record]]
molecule = "Cc1cc(C)[nH]c(=O)c1"
measure_name = "growth inhibition"
measured_value = 9.2

[[record]]
molecule = "Cc1cc(C(=O)C(C#N)=Nc2ccc(N(C)C)cc2)c(CN2C(=O)c3ccccc3C2=O)c(=O)n1C"
measure_name = "growth inhibition"
measured_value = 22.9

[[record]]
molecule = "O=C(Cc1ccc(CC(=O)NCCCCc2ccccc2)cc1)NCCCCc1ccccc1"
measure_name = "growth inhibition"
measured_value = 0.75

[[record]]
molecule = "CC(C)NS(=O)(=O)OCC(O)(CC(Cl)(Cl)Cl)c1ccccc1 (stereo not drawn)"
measure_name = "growth inhibition"
measured_value = 23.8

[[record]]
molecule = "COc1ccc(-c2sc(C)nc2O)cc1"
measure_name = "growth inhibition"
measured_value = 7.75

[[record]]
molecule = "Nn1c(N=Nc2c(O)[nH]c3ccccc23)n[nH]c1=S"
measure_name = "growth inhibition"
measured_value = 45.9

[[record]]
molecule = "CCOc1ccc(NC(N)=O)cc1"
measure_name = "growth inhibition"
measured_value = -44.5

[[record]]
molecule = "COc1cc(OC)c2c(c1)C(C)(C)CCC2(C)C"
measure_name = "growth inhibition"
measured_value = 9.2

[[record]]
molecule = "CCC(=O)OC(CCC1CCCO1)CCC1CCCO1 (stereo not drawn)"
measure_name = "growth inhibition"
measured_value = 11.5

[[record]]
molecule = "O=c1nc2c(c(-c3ccc(F)cc3)[nH]1)COC/C2=C\\c1ccc(F)cc1"
measure_name = "growth inhibition"
measured_value = 18.2

[[record]]
molecule = "CN(C)c1nc(N(C)C)nc(N(C)CN(C)c2ccc(Cl)cc2)n1"
measure_name = "growth inhibition"
measured_value = -11.3

[[record]]
molecule = "FC(F)(F)C1CCCCC1[Si](C1CCCCC1C(F)(F)F)C1CCCCC1C(F)(F)F (stereo not drawn)"
measure_name = "growth inhibition"
measured_value = 32.8

[[record]]
molecule = "CCOP(=O)(OCC)C(C)(CC)N/C(=N/C(NC(C)=O)(C(F)(F)F)C(F)(F)F)NC1=NC(C(F)(F)F)(C(F)(F)F)N=C(C(F)(F)F)O1 (stereo not drawn)"
measure_name = "growth inhibition"
measured_value = 1.65

[[record]]
molecule = "CC(CC(=O)c1cccc2ccccc12)C(=O)O (stereo not drawn)"
measure_name = "growth inhibition"
measured_value = 19

[[record]]
molecule = "c1ccc2c(c1)ccc1c[n+]3ccccc3cc12"
measure_name = "growth inhibition"
measured_value = 26.6

[[record]]
molecule = "CCOC(=O)C(c1ccc2c(c1)OCO2)C1(NC(=O)c2ccccc2)C(=O)C(C(=O)OC)C(=O)C1C(=O)OC (stereo not drawn)"
measure_name = "growth inhibition"
measured_value = 16.5

[[record]]
molecule = "O=C(O)/C=C\\C(=O)NNC(=O)/C=C\\C(=O)O"
measure_name = "growth inhibition"
measured_value = 5.55

[[record]]
molecule = "CN(Cc1ccc(Cl)cc1)N=Nc1ccc(C(=O)O)cc1"
measure_name = "growth inhibition"
measured_value = -5.5

[[record]]
molecule = "CC(O)CCC(=O)c1nc2ccccc2s1 (stereo not drawn)"
measure_name = "growth inhibition"
measured_value = -14.4

[[record]]
molecule = "N#Cc1c(O)c(N=Nc2ccc(Cl)cc2)c(=O)n2c1[nH]c1ccccc12"
measure_name = "growth inhibition"
measured_value = 11.6

[[record]]
molecule = "CCOC(=O)C(=CNC(=S)N=Nc1c(O)[nH]c2ccccc12)C(=O)OCC"
measure_name = "growth inhibition"
measured_value = -58.4

[[record]]
molecule = "Clc1cccc(NC2=NCCN=C(Nc3cccc(Cl)c3Cl)SS2)c1Cl"
measure_name = "growth inhibition"
measured_value = 8.6

[[record]]
molecule = "c1cncc(C2c3[nH]c4ccccc4c3CCN2CCCN2CCCCC2)c1 (stereo not drawn)"
measure_name = "growth inhibition"
measured_value = -5.2

[[record]]
molecule = "NNc1nc(NCc2ccco2)c2[nH]cnc2n1"
measure_name = "growth inhibition"
measured_value = -10

[[record]]
molecule = "CCOC(=O)/C(Cc1cc[n+]([O-])cc1)=N/O"
measure_name = "growth inhibition"
measured_value = 33.5

[[record]]
molecule = "O=C(O)c1ccc(NCO)cc1"
measure_name = "growth inhibition"
measured_value = 7.05

[[record]]
molecule = "CCOC(=O)CN(c1ccccc1)c1nc(=[N+](C)C)ss1"
measure_name = "growth inhibition"
measured_value = 7.05

[[record]]
molecule = "COc1ccccc1N=Nc1c(O)n(-c2ccccc2OC)c(=S)n(-c2ccccc2)c1=O"
measure_name = "growth inhibition"
measured_value = 40.8

[[record]]
molecule = "CC(C)(C)NCCS"
measure_name = "growth inhibition"
measured_value = -17.1

[[record]]
molecule = "OC1(Cc2ccccc2)CCCCCC1"
measure_name = "growth inhibition"
measured_value = -2.3

[[record]]
molecule = "CC(C)=CCCC(C)CCOc1cccc(C)c1 (stereo not drawn)"
measure_name = "growth inhibition"
measured_value = 3.65

[[record]]
molecule = "C(=N\\N(c1ccccc1)c1ccccc1)/C(c1ccccc1)c1ccccc1"
measure_name = "growth inhibition"
measured_value = 2.55

[[record]]
molecule = "CCOc1cccc(OCC)c1"
measure_name = "growth inhibition"
measured_value = 23.1

[[record]]
molecule = "CCCCCC(Br)C(Br)CC(Br)C(Br)CC(Br)C(Br)CCCCC(=O)O (stereo not drawn)"
measure_name = "growth inhibition"
measured_value = 11.2

[[record]]
molecule = "CCCCCO.CCCCCO.CCCCCO.CCCCCO.[Ti]"
measure_name = "growth inhibition"
measured_value = 3.45

[[record]]
molecule = "Oc1[nH]c2ccccc2c1N=NC(=S)Nc1ccccc1"
measure_name = "growth inhibition"
measured_value = 12.6

[[record]]
molecule = "O=C(CC(=O)Nc1ccccc1Cl)NNC(c1cc(N=Nc2ccc(Br)cc2)ccc1O)P(O)O (stereo not drawn)"
measure_name = "growth inhibition"
measured_value = 1.8

[[record]]
molecule = "COc1ccc(CCNS(=O)(=O)c2c(C)c(C)c(C)c(C)c2C)cc1OC"
measure_name = "growth inhibition"
measured_value = -2.2

[[record]]
molecule = "Nc1ncnc2c1ncn2CC(O)CN(CCO)CCO (stereo not drawn)"
measure_name = "growth inhibition"
measured_value = 13.1

[[record]]
molecule = "C/C(=N\\NS(=O)(=O)c1c(C)cc(C)cc1C)c1ccc[n+]([O-])n1"
measure_name = "growth inhibition"
measured_value = 3.95

[[record]]
molecule = "Nc1ncnc(N)c1NC(=O)c1ccc2ccccc2c1"
measure_name = "growth inhibition"
measured_value = 8.95

[[record]]
molecule = "COc1ccc(OC2OC(CO)C(O)C(O)C2O)cc1 (stereo not drawn)"
measure_name = "growth inhibition"
measured_value = 8.9

[[record]]
molecule = "COc1cc(C)c(O)c(C(=O)O)c1"
measure_name = "growth inhibition"
measured_value = -3.7

[[record]]
molecule = "O=[N+]([O-])c1cccc(C2=NN(c3ccccc3)C3c4cc(Br)ccc4OCC23)c1 (stereo not drawn)"
measure_name = "growth inhibition"
measured_value = -10.8

[[record]]
molecule = "COc1ccc(C(=O)/C=C/c2ccc(OCC#N)cc2)cc1OC"
measure_name = "growth inhibition"
measured_value = -39.5

[[record]]
molecule = "CC(O)CNc1nc(N)[nH]c(=O)c1[N+](=O)[O-] (stereo not drawn)"
measure_name = "growth inhibition"
measured_value = 4.45

[[record]]
molecule = "CC(=O)Oc1ccc(N2CC=C(c3ccccc3)CC2)cc1"
measure_name = "growth inhibition"
measured_value = -6.7

[[record]]
molecule = "Cc1cc(C)c([N+](=O)[O-])cc1N"
measure_name = "growth inhibition"
measured_value = 20.9

